Tested on: GM-CSF induced STAT5 phosphorylation mediated by the JAK2/JAK2 homdimeric complex
measurement-protocol: GM-CSF Induced pSTAT5 in Human PBMC
experimental-conditions: Homo sapiens, PBMC, 20 min, read-out: PBMC_GMCSF_pSTAT5 IC50, human PBMC; GM-CSF 5 ng/mL for 20 minutes; pSTAT5
pIC50: −log10 of the molar value.
measure-name: pIC50

- CNc1cc(Nc2cccn(-c3ccccn3)c2=O)nc2c(C(=O)N[C@H]3CC[C@H]3O)cnn12: < 4.90
- CNc1cc(Nc2cccn(-c3ncc(C)s3)c2=O)nc2c(C(=O)N[C@H]3CC[C@@H]3O)cnn12 (stereo in doubt): < 5.60
- CNc1cc(Nc2cccc(N3CCCC3=O)n2)nc2c(C(=O)NC3CC3)cnn12: < 4.90
- CNc1cc(Nc2cccc3ocnc23)nc2c(C(=O)N[C@H]3COC[C@H]3O)cnn12: < 4.30
- CNc1cc(-c2cn(C(C)C)c3ncc(C)cc23)nc2c(C(N)=O)cnn12: < 4.30
- CNc1cc(Nc2cc(F)cnc2OCCOC)nc2c(C(=O)NC3CCC3)cnn12: < 5.60
- CNc1cc(Nc2cccn(-c3ccc(C4CC4)nn3)c2=O)nc2c(C(=O)NC3CCC3)cnn12: < 5.60
- CNc1cc(Nc2cc(Cl)cn(-c3ccc(C4CC4)nn3)c2=O)nc2c(C(=O)N[C@H]3C[C@H]3F)cnn12: < 4.30
- CNc1cc(Nc2cccn([C@H]3CC[C@H](OC)CC3)c2=O)nc2c(C(=O)N[C@H]3C[C@H]3F)cnn12: < 4.90
- CNc1cc(Nc2cc(C)cn(-c3cnn(C)c3)c2=O)nc2c(C(=O)NC3CC3)cnn12: < 4.30
- CNc1cc(Nc2cccn(-c3ccc(F)cc3)c2=O)nc2c(C(=O)N[C@H]3C[C@H]3F)cnn12: < 5.60
- CNc1cc(-c2cn(C(C)C)c3ncccc23)nc2c(C(=O)N[C@H]3C[C@H](O)C3)cnn12: < 5.60
- CNc1cc(Nc2cccn(-c3ncc(C)s3)c2=O)nc2c(C(=O)NC3CC3)cnn12: < 5.60
- [2H]C([2H])([2H])Oc1ncccc1Nc1cc(NC)n2ncc(C(=O)NC3CC4(COC4)C3)c2n1: < 4.30
- CNc1cc(Nc2cccn(-c3ccc(F)cn3)c2=O)nc2c(C(=O)N[C@H]3C[C@H]3F)cnn12: < 4.90
- CNc1cc(Nc2cccn([C@H]3CCC[C@H](OC)C3)c2=O)nc2c(C(=O)NCC(C)(C)CO)cnn12: < 4.30

====

pIC50 for assorted compounds
Test system: GM-CSF induced STAT5 phosphorylation mediated by the JAK2/JAK2 homdimeric complex
measurement-protocol: GM-CSF Induced pSTAT5 in Human PBMC
experimental-conditions: Homo sapiens, PBMC, 20 min, read-out: PBMC_GMCSF_pSTAT5 IC50, human PBMC; GM-CSF 5 ng/mL for 20 minutes; pSTAT5
pIC50: −log10 of the molar value.
measure-name: pIC50

• CNc1cc(Nc2cccn(-c3cn(C)nc3F)c2=O)nc2c(C(=O)N[C@H]3C[C@H]3F)cnn12 [I-607] = < 4.30
• CNc1cc(Nc2cccn(C3CCN(CC(F)F)CC3)c2=O)nc2c(C(=O)NC3CCC3)cnn12 [I-192] = < 4.90
• CNc1cc(Nc2cccnc2OC)nc2c(C(=O)N[C@H]3C[C@H]3F)cnn12 [I-110] = < 4.30
• [2H]C([2H])([2H])Oc1ncccc1Nc1cc(NC)n2ncc(C(=O)N[C@H]3CC[C@@H]3O)c2n1 [I-373] = < 4.30
